Protocol Description: Rotating rod test (sedative/muscle relaxant properties), i.v.
Type: in vivo
Measurement Setup: Mus musculus, iv, 15 s, mice, 15 sec after administration, read-out: Rotating rod test, ED50, 15 sec after administration
Experimental: The sedative/muscle relaxant properties of the compounds of formula I in accordance with the invention can be determined, for example, in the rotating rod test. Mice weighing 19-21 g are used for this test. They have free access to feed and drinking water up to 1 hour before the beginning of the test. […] At various points in time it is then determined whether the animals are able to remain on the rod for a minimum period (minimum period: 10 seconds; from 5 minutes after administration: 1 minute.). […]
Parameter: ED50 (mg/kg)
Numbers only, in mg/kg.

INSERT INTO assay_data (input_smiles, parameter, measurement) VALUES
  ('CN1Cc2c(-c3noc(CN4CCCCC4)n3)ncn2-c2ccc(F)cc2C1=O', 'ED50', 0.8),
  ('CCCCN(CCCC)Cc1nnc(-c2ncn3c2[C@@H]2CCN2C(=O)c2sccc2-3)o1', 'ED50', 0.3),
  ('CC(C)N(Cc1nc(-c2ncn3c2CN(C)C(=O)c2cc(F)ccc2-3)no1)C(C)C', 'ED50', 0.1),
  ('CCCN(CCC)Cc1nc(-c2ncn3c2CN(C)C(=O)c2c(F)cccc2-3)no1', 'ED50', 0.1),
  ('O=C1c2c(Cl)cccc2-n2cnc(-c3noc(CN4CCCCC4)n3)c2[C@@H]2CCN12', 'ED50', 0.1);

I'm hoping you can list ED50 for every compound here, please.
1. CC(C)N(Cc1nc(-c2ncn3c2CN(C)C(=O)c2ccccc2-3)no1)C(C)C
2. CCCN(CCC)Cc1nc(-c2ncn3c2CN(C)C(=O)c2cc(F)ccc2-3)no1

Output:
1: 0.3; 2: 0.2
